assay: Pharmacokinetics in cynomolgus monkeys (20 mg/kg i.v.); assay type: in vivo; conditions: cynomolgus monkey, plasma, iv, 20 mg/kg, cynomolgus monkeys, Mean (N=3), read-out: Cmax
RECORDED_ENDPOINT: Cmax (ng/mL)
Express your answer in ng/mL, writing the number without its unit.

## Input Output Cmax of Cn1c(COP(=O)(NCCBr)NCCBr)cnc1[N+](=O)[O-] [TH302]
## Output 20700

* * *

test: Pharmacokinetics in Sprague-Dawley rats (single dose i.v. and p.o.); type: in vivo, male Sprague-Dawley rats; details: male, Sprague-Dawley, rat, plasma, iv, 50 mg/kg, rats, 50 mg/kg i.v. bolus, MEAN; read-out: MRT
RECORDED_ENDPOINT: MRT (min)
Write the value in min as a bare number.

## Input Provide measured MRT value, entry: `Cn1c(COP(=O)(NCCBr)NCCBr)cnc1[N+](=O)[O-]`
## Output 17.4

* * *

assay: Pharmacokinetics after repeated administration (Q7D×3) to dogs; assay type: in vivo; details: dog, in vivo; TH302 in dogs, 4 mg/kg Q7D×3, Day 15
RECORDED_ENDPOINT: clearance (mL/min/kg)
Your answer should be a plain number; it is taken to be in mL/min/kg.

## Input Name the recorded clearance of the compound listed here: `Cn1c(COP(=O)(NCCBr)NCCBr)cnc1[N+](=O)[O-]`
## Output 80.7

* * *

Test: Pharmacokinetics after repeated administration (Q7D×3) to dogs
Assay type: in vivo
Details: dog, in vivo; TH302 in dogs, 16 mg/kg Q7D×3, Day 15
Text: These changes were reversible.
RECORDED_ENDPOINT: clearance
Your answer should be a number followed by the unit of measure.

## Input Output measured clearance for this item: Cn1c(COP(=O)(NCCBr)NCCBr)cnc1[N+](=O)[O-] [TH302]
## Output 63.7 mL/min/kg

* * *

assay: Pharmacokinetics in Sprague-Dawley rats (single dose i.v. and p.o.); format: in vivo, male Sprague-Dawley rats; conditions: male, Sprague-Dawley, rat, plasma, iv, 1 mg/kg, rats, 1 mg/kg i.v. bolus, MEAN; read-out: AUC(0-t)
RECORDED_ENDPOINT: AUC(0-t) (ng·h/mL)
Please reply with the bare figure in ng·h/mL and do not write the unit itself.

## Input Return AUC(0-t) for the following compound: Cn1c(COP(=O)(NCCBr)NCCBr)cnc1[N+](=O)[O-] [TH302]
## Output 217

* * *

test: Pharmacokinetics of TH302 in Beagle Dogs (Table 6); format: in vivo; conditions: male, dog, plasma, intravenous, Males, 16 mg/kg
RECORDED_ENDPOINT: Cmax

## Input Check the records and state Cmax for `Cn1c(COP(=O)(NCCBr)NCCBr)cnc1[N+](=O)[O-]`
## Output 10800 ng/mL

* * *

experiment: Pharmacokinetics in Sprague-Dawley rats (single dose i.v. and p.o.); type: in vivo, male Sprague-Dawley rats; conditions: male, Sprague-Dawley, rat, plasma, iv, 50 mg/kg, rats, 50 mg/kg i.v. bolus, MEAN; read-out: Cmax
RECORDED_ENDPOINT: Cmax (ng/mL)
Your answer should be a plain number; it is taken to be in ng/mL.

## Input Find the measured Cmax of `Cn1c(COP(=O)(NCCBr)NCCBr)cnc1[N+](=O)[O-]` and report it.
## Output 35500
